Target: mu opiate receptor (MOR) (Rattus norvegicus)
Construct: from tissue; host or cells: striatum (membrane preparation)
Sequence (P33535 whole entry): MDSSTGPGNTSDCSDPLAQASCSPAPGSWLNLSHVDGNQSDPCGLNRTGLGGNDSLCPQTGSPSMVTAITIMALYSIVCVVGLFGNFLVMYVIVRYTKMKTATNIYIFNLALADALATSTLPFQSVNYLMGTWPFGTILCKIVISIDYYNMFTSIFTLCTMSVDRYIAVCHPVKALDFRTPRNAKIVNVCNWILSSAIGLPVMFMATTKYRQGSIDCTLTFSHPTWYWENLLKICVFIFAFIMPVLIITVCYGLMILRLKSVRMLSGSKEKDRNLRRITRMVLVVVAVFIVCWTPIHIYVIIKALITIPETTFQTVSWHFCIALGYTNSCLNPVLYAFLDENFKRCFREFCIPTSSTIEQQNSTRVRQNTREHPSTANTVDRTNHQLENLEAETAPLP
Assay: MOR agonist activity using [35S]GTPgS binding assay in striatal membranes
Format: biochemical
Conditions: 0.1 μM compound as agonist; Series C-2 table
ENDPOINT LABEL: MOR agonist activity ([35S]GTPgS binding to Gao) (%)
Answers are plain numbers, in %.

> print(dat)
                                   compound                               test.target  output.unit  quantitative.readout
1  CC(=O)c1ccc(S(=O)(=O)N2CCC3(CC2)NC(=O)CO3)cc1 [Compound C0087M]  mu opiate receptor (MOR) (Rattus norvegicus)            %                 262.8
2  C=CCN1CCC2(CC1)OCCN2S(=O)(=O)c1ccc(C(C)=O)cc1 [Compound C0096M]  mu opiate receptor (MOR) (Rattus norvegicus)            %                 186.4
3  COc1ccc(S(=O)(=O)N2CCC3(NCCO3)C3CCCCC32)cc1 (centres unmarked) [Compound C0144M-2]  mu opiate receptor (MOR) (Rattus norvegicus)            %                 186.3

Would you be so kind as to report MOR agonist activity ([35S]GTPgS binding to Gao) for each listed record?
1. CCCCN1CCC2(CC1)OCCN2S(=O)(=O)c1ccc(OC)cc1 [Compound C0102M]
2. O=[N+]([O-])c1ccc(S(=O)(=O)N2CCC3(CC2)NCCCO3)cc1

1: 131.8; 2: 149.2

Values from patent US20220233512A1
